Each record here notes measured GI50.
# measured-on: FLT3-ITD-F691L-D835Y Ba/F3 cells (Homo sapiens, UniProt P36888, F691L/D835Y, cells depend on it, form not given)
# protocol-details: Growth inhibitory activity against Ba/F3 cell line
# Format: cell-based
# run-parameters: Ba/F3 expressing FLT3-ITD-F691L-D835Y; 72 hours; cell titer glo; read-out: IC50 (uM) FLT3-ITD-F691L-D835Y
Where a name gives a salt, the structure may show the parent alone.
Please state the figure in µM; there is no need to write the unit.

Examples with answers:
NC(=O)Nc1cc(C#Cc2ccc(C(F)(F)F)cc2)sc1C(=O)N[C@H]1CCCNC1 [Example 16]; 0.004
CC(C)n1cc(C#Cc2cc(NC(N)=O)c(C(=O)N[C@H]3CCCCNC3)s2)cn1 [Example 44, trifluoroacetate]; 0.004
NC(=O)Nc1cc(C#Cc2ccccn2)sc1C(=O)N[C@H]1CCCNC1 [Example 10]; 0.004
Cc1ccc(C#Cc2cc(NC(N)=O)c(C(=O)N[C@H]3CCCNC3)s2)cc1 [Example 24]; 0.002
Cn1cc(C#Cc2cc(NC(N)=O)c(C(=O)N[C@H]3CCCCNC3)s2)cn1 [Example 41, trifluoroacetate]; 0.007

Pending compound:
Value of GI50 reported for the compound NC(=O)Nc1cc(C#Cc2ccc(F)nc2)sc1C(=O)N[C@H]1CCCNC1 [Example 13] is 0.004

* * *

# measured-on: FLT3-ITD-F691L Ba/F3 cells (Homo sapiens, UniProt P36888, F691L, cells depend on it, form not given)
# protocol-details: Growth inhibitory activity against Ba/F3 cell line
# Assay type: cell-based
# run-parameters: Ba/F3 expressing FLT3-ITD-F691L; 72 hours; cell titer glo; read-out: IC50 (uM) FLT3-ITD-F691L
Where a name gives a salt, the structure may show the parent alone.
endpoint: GI50

Examples with answers:
Cn1cc(C#Cc2cc(NC(N)=O)c(C(=O)N[C@H]3CCCNC3)s2)cn1 [Example 15]; 0.216 µM
COCCn1cc(C#Cc2cc(NC(N)=O)c(C(=O)N[C@H]3CCCCNC3)s2)cn1 [Example 45, trifluoroacetate]; 1.34 µM
NC(=O)Nc1cc(C#Cc2ccc([N+](=O)[O-])cc2)sc1C(=O)N[C@H]1CCCNC1 [Example 7]; 0.089 µM

Pending molecule:
Value of GI50 reported for the molecule NC(=O)Nc1cc(C#Cc2ccccc2)sc1C(=O)N[C@H]1CCCNC1 [Example 2] is 0.004 µM

* * *

# measured-on: FLT3-ITD-F691L Ba/F3 cells (Homo sapiens, UniProt P36888, F691L, cells depend on it, form not given)
# protocol-details: Growth inhibitory activity against Ba/F3 cell line
# Assay type: cell-based
# run-parameters: Ba/F3 expressing FLT3-ITD-F691L; 72 hours; cell titer glo; read-out: IC50 (uM) FLT3-ITD-F691L
# Procedure: A Ba/F3 cell line expressing an FLT3 mutation gene was cultured in a culture solution including 90% RPMI, 10% FBS, and an antibiotic (Welgene). […] 50 uL of a cell titer glo (Promega) solution was added thereto, the resulting mixture was stored at room temperature for 10 minutes, and then the light emission intensity was measured by using a reader (Envision, PerkinElmer). […]
Where a name gives a salt, the structure may show the parent alone.
endpoint: GI50 (µM)
Please state the figure in µM; there is no need to write the unit.

Examples with answers:
CS(=O)(=O)N1CCC(n2cc(C#Cc3cc(NC(N)=O)c(C(=O)N[C@H]4CCCCNC4)s3)cn2)CC1 [Example 47, trifluoroacetate]; 0.645
NC(=O)Nc1cc(C#Cc2ccc(Cl)cc2)sc1C(=O)N[C@H]1CCCNC1; 0.013
CC(C)n1cc(C#Cc2cc(NC(N)=O)c(C(=O)N[C@H]3CCCCNC3)s2)cn1 [Example 44, trifluoroacetate]; 0.214
CCn1cc(C#Cc2cc(NC(N)=O)c(C(=O)N[C@H]3CCCCNC3)s2)cn1; 0.2
N#Cc1cccc(C#Cc2cc(NC(N)=O)c(C(=O)N[C@H]3CCCNC3)s2)c1; 0.055
N#Cc1ccc(C#Cc2cc(NC(N)=O)c(C(=O)N[C@H]3CCCNC3)s2)cc1; 0.004
NC(=O)Nc1cc(C#Cc2ccc(F)nc2)sc1C(=O)N[C@H]1CCCNC1; 0.022
CC(=O)N1CCC(n2cc(C#Cc3cc(NC(N)=O)c(C(=O)N[C@H]4CCCCNC4)s3)cn2)CC1; 0.616
Cn1cc(C#Cc2cc(NC(N)=O)c(C(=O)NC3CCNC3)s2)cn1 (centres unmarked) [Example 39, trifluoroacetate]; 19.1
NC(=O)Nc1cc(C#Cc2ccnc(F)c2)sc1C(=O)N[C@H]1CCCNC1; 0.087

Value of GI50 reported for the compound NC(=O)Nc1cc(CCc2cccc(F)c2)sc1C(=O)N[C@H]1CCCCNC1 is 7.47

Value of GI50 reported for the compound NC(=O)Nc1cc(C#Cc2ccsc2)sc1C(=O)N[C@H]1CCCCNC1 [Example 48, trifluoroacetate] is 0.083

Value of GI50 reported for the compound NC(=O)Nc1cc(C#Cc2ccc(F)c(F)c2)sc1C(=O)N[C@H]1CCCNC1 is 0.009

Value of GI50 reported for the compound NC(=O)Nc1cc(C#Cc2cccc(F)c2)sc1C(=O)NC1CCNC1 (centres unmarked) is 0.848

Value of GI50 reported for the compound NC(=O)Nc1cc(C#Cc2cccc(F)c2)sc1C(=O)N[C@H]1CCCCNC1 is 0.174

Value of GI50 reported for the compound NC(=O)Nc1cc(C#Cc2cccc([N+](=O)[O-])c2)sc1C(=O)N[C@H]1CCCNC1 is 0.062

Value of GI50 reported for the compound NC(=O)Nc1cc(C#Cc2ccc(F)cc2)sc1C(=O)N[C@H]1CCCNC1 is 0.005

Value of GI50 reported for the compound NC(=O)Nc1cc(C#Cc2n[nH]c3ccccc23)sc1C(=O)N[C@H]1CCCNC1 is 0.487

Value of GI50 reported for the compound CS(=O)(=O)N1CCC(n2cc(C#Cc3cc(NC(N)=O)c(C(=O)N[C@H]4CCCNC4)s3)cn2)CC1 is 0.267

Value of GI50 reported for the compound NC(=O)Nc1cc(CCc2cccc(F)c2)sc1C(=O)N[C@H]1CCCNC1 is 1.39

Value of GI50 reported for the compound NC(=O)Nc1cc(C#Cc2cnn(C3CCOCC3)c2)sc1C(=O)N[C@H]1CCCCNC1 [Example 46, trifluoroacetate] is 0.075

Value of GI50 reported for the compound COC(=O)c1ccc(C#Cc2cc(NC(N)=O)c(C(=O)N[C@H]3CCCNC3)s2)cc1 [Example 18, trifluoroacetate] is 0.023

Value of GI50 reported for the compound Cc1ccc(C#Cc2cc(NC(N)=O)c(C(=O)N[C@H]3CCCNC3)s2)cc1 is 0.058

Value of GI50 reported for the compound NC(=O)Nc1cc(C#Cc2ccccn2)sc1C(=O)N[C@H]1CCCNC1 is 0.066

Value of GI50 reported for the compound NC(=O)Nc1cc(C#Cc2ccc(C(F)(F)F)nc2)sc1C(=O)N[C@H]1CCCNC1 is 0.069

* * *

# System: Parental Ba/F3 cells
# protocol-details: Growth inhibitory activity against Ba/F3 cell line
# Type: cell-based
# run-parameters: BaF3; Parental Ba/F3 with mouse IL-3 1 ng/mL; 72 hours; cell titer glo
Structures can show the parent of a compound that is named as a salt.
Each record here notes measured IC50.
Please state the figure in µM; there is no need to write the unit.

Cn1cc(C#Cc2cc(NC(N)=O)c(C(=O)N[C@H]3CCCCNC3)s2)cn1 [Example 41, trifluoroacetate]; 3.69
NC(=O)Nc1cc(C#Cc2ccc(F)cc2)sc1C(=O)N[C@H]1CCCNC1; 0.429
COC(=O)c1ccc(C#Cc2cc(NC(N)=O)c(C(=O)N[C@H]3CCCNC3)s2)cc1 [Example 18, trifluoroacetate]; 0.454
CC(C)n1cc(C#Cc2cc(NC(N)=O)c(C(=O)N[C@H]3CCCCNC3)s2)cn1 [Example 44, trifluoroacetate]; 2.45
CCn1cc(C#Cc2cc(NC(N)=O)c(C(=O)N[C@H]3CCCCNC3)s2)cn1; 4.1

Value of IC50 reported for the molecule NC(=O)Nc1cc(C#Cc2cccc(F)c2)sc1C(=O)NC1CCNC1 (stereo not drawn) is 14.9

Value of IC50 reported for the molecule Cn1cc(C#Cc2cc(NC(N)=O)c(C(=O)N[C@H]3CCCNC3)s2)cn1 is 34.6

* * *

Each record here notes measured IC50.
# Tested on: Parental Ba/F3 cells
# protocol-details: Growth inhibitory activity against Ba/F3 cell line
# Type: cell-based
# run-parameters: BaF3; Parental Ba/F3 with mouse IL-3 1 ng/mL; 72 hours; cell titer glo
Structures can show the parent of a compound that is named as a salt.
Please state the figure in µM; there is no need to write the unit.

NC(=O)Nc1cc(C#Cc2cnn(C3CCOCC3)c2)sc1C(=O)N[C@H]1CCCCNC1 [Example 46, trifluoroacetate]; 0.3
NC(=O)Nc1cc(C#Cc2ccccn2)sc1C(=O)N[C@H]1CCCNC1 [Example 10]; 4.62
NC(=O)Nc1cc(C#Cc2ccc(C(F)(F)F)cc2)sc1C(=O)N[C@H]1CCCNC1 [Example 16]; 14.8
NC(=O)Nc1cc(C#Cc2cccc(F)c2)sc1C(=O)N[C@H]1CCCCNC1 [Example 50]; 7.8
NC(=O)Nc1cc(C#Cc2cn[nH]c2)sc1C(=O)N[C@H]1CCCCNC1 [Example 42, trifluoroacetate]; 54.4
NC(=O)Nc1cc(C#Cc2ccsc2)sc1C(=O)N[C@H]1CCCCNC1 [Example 48, trifluoroacetate]; 1.59
NC(=O)Nc1cc(C#Cc2ccncc2)sc1C(=O)N[C@H]1CCCNC1 [Example 4]; 24
NC(=O)Nc1cc(CCc2cccc(F)c2)sc1C(=O)N[C@H]1CCCNC1 [Example 53]; 44.5

Value of IC50 reported for the compound NC(=O)Nc1cc(C#Cc2ccccc2)sc1C(=O)N[C@H]1CCCNC1 [Example 2] is 0.159

Value of IC50 reported for the compound NC(=O)Nc1cc(C#Cc2ccc(C(F)(F)F)nc2)sc1C(=O)N[C@H]1CCCNC1 [Example 17] is 2.37

Value of IC50 reported for the compound NC(=O)Nc1cc(C#Cc2cccnc2)sc1C(=O)N[C@H]1CCCNC1 [Example 3] is 6.46

Value of IC50 reported for the compound NC(=O)Nc1cc(C#Cc2ccc(F)c(F)c2)sc1C(=O)N[C@H]1CCCNC1 [Example 14] is 0.269

Value of IC50 reported for the compound NC(=O)Nc1cc(C#Cc2ccc(F)nc2)sc1C(=O)N[C@H]1CCCNC1 [Example 13] is 2.22
